study.system: S protein of the novel coronavirus SARS-CoV-2 (SARS-CoV-2, UniProt P0DTC2 14-1273)
assay: cell-based or functional assay
Measured IC50 for neutralizing SARS-CoV-2 pseudovirus (Huh-7 cells, luciferase) of individual entries

Known results for binders:
ABU-371 (antibody, V domains shown) VH: EVQLVESGGGLVQPGGSLRLSCAASGIIVSSNYMSWVRQAPGKGLEWVSVIYSGGSTYYADSVKGRFTISRDNSKNTLYLQMNSLRAEDTAVYYCARDLDYYGMDVWGQGTTVTVSS VL: DIQLTQSPSFLSASVGDRVTITCRASQGISSYLAWYQQKPGKAPKLLIYAASTLQSGVPSRFSGSGSGTEFTLTISSLQPEDFATYYCQQLNSYPPFTFGPGTKVDIK: < 1 µg/mL
ABU-380 (antibody, V domains shown) VH: EVQLVESGGGLVQPGGSLRLSCAASGFTVSSNYMSWVRQAPGKGLEWVSLIYPGGSTYYADSVEGRFTISRDNSKNTLYLQMNSLRAEDTAVYYCAREIRVITPVEVWGQGTLVTVSS VL: DIQMTQSPSSLSASVGDRVTITCQASQDINKYLNWYQLKPGKAPNLLIYDASNLETGVPSRFSGSGSGTDFTFTISSLQPEDIATYYCHQYDNLPRTFGQGTKVEIK: < 0.1 µg/mL

Turning to the following binder.
Input ABU-361 (antibody, V domains shown) VH: EVQLVESGGGLIQPGGSLRLSCAASGLTVSSNYMSWVRQAPGKGLEWVSVIYSGGSTYYADSVKGRFTISRDNSTNTLYLQMNSLRAEDTAVYYCARDLDYYGMDVWGQGTTVTVSS VL: DIQLTQSPSSLSASVGDRVTITCRASQGISSYLAWYQQKPGKAPNLLIYAASTLQSGVPSRFSGSGSGTDFTLTISSLQPEDFATYYCQHLNSYPPITFGQGTRLEIK , output reported IC50 for neutralizing SARS-CoV-2 pseudovirus (Huh-7 cells, luciferase).
< 0.5 µg/mL
